Tested on: LOX IMVI melanoma
Protocol notes: NCI tumour cell line growth inhibition, 48 h
Outcome measure: TGI

What TGI value was documented for this compound, Cn1cc(C2=C(c3cn(CCCCCO)c4ccccc34)C(=O)NC2=O)c2ccccc21 ?
> 19.4 µM

What do you have for O=C1NC(=NCCc2ccccn2)S/C1=C\c1ccc2ncccc2c1 ?
> 25 µM

What do you have for O=C(NCCCN(CCCCN(CCCNC(=O)c1cc(S(=O)(=O)O)cc(O)c1O)C(=O)c1cc(S(=O)(=O)O)cc(O)c1O)C(=O)c1cc(S(=O)(=O)O)cc(O)c1O)c1cc(S(=O)(=O)O)cc(O)c1O ?
> 100 µM

What do you have for O=C(O)CCCN=C(C1=C(O)C(=O)N(c2ccccc2)C1=O)c1ccccc1 ?
> 100 µM

What do you have for CC1(C)CCC(C)(C)c2cc(NC(=O)c3ccc(C(=O)O)cc3)ccc21 ?
48.3 µM

What do you have for CCC12C=CCN3CCC4(c5cc(C(c6ccc(OC)cc6)C6Cc7ccccc7N6)c(OC)cc5N(C)C4C(O)(C(=O)OC)C1O)C32 (stereo not drawn) ?
36 µM

What do you have for Cc1cccc(Cl)c1NC(=O)c1cnc(Nc2cc(N3CCOCC3)cc(S(C)(=O)=O)c2)s1 ?
0.938 µM

What do you have for Cc1[nH]nc2ncc(C(=O)N3CCC[C@H]3c3ccc(Cl)cc3)cc12 ?
> 100 µM

---

System: MALME-3M melanoma
Protocol notes: NCI tumour cell line growth inhibition, 48 h
Outcome measure: TGI

Give TGI (MALME-3M melanoma) of the following compound: C=C1C(=O)C2=CC1CCC(=O)C1(C)CCC(OC(C)=O)C(C)(C)C1CC2O (stereo not drawn)
18.1 µM

What do you have for CCOC(=O)C1(N)CC1 ?
> 100 µM

What do you have for Cc1ccc(C(=O)Nc2ncn(C3CC(O)C(CO)O3)c(=O)n2)cc1 (stereo not drawn) ?
> 100 µM

What do you have for COc1ccc(-c2cn(-c3cc(OC)c(OC)c(OC)c3)c(=O)[nH]2)cc1OC ?
> 100 µM

What do you have for C=CC(=O)N1CC[C@H](n2nc(C#Cc3cc(OC)cc(OC)c3)c3c(N)ncnc32)C1 ?
> 100 µM

What do you have for CN1CCN(Cc2nc3c(s2)CCc2sccc2-3)CC1 ?
> 100 µM

What do you have for COc1ccc(N=Nc2c(N)nn(C)c2N)cc1 ?
> 100 µM

What do you have for O=S(=O)(O)c1ccc2c(N=Nc3ccccc3)c(O)ccc2c1 ?
> 100 µM

What do you have for Cc1nc2c3c(ccc2[nH]c1=O)C(=O)c1ccccc1C3=O ?
> 100 µM

What do you have for Nc1nn(C(=O)Nc2c(F)cccc2F)c2ccccc12 ?
> 100 µM

What do you have for COC(=O)[C@@H](C)C[C@H](Cc1ccccc1)NC(=O)c1csc([C@@H](C[C@H](C(C)C)N(C)C(=O)[C@@H](NC(=O)[C@H]2CCCN2C)C2CC2)OC(C)=O)n1 ?
> 25 µM

What do you have for NC(CCCCNCc1ccccc1)C(=O)O (stereo not drawn) ?
> 100 µM

What do you have for COc1ccc2c(c1)C(c1cc(OC)c3c(c1)OCO3)C1=C(COC1=O)N2 (stereo not drawn) ?
> 100 µM
